// data source = PubChem BioAssay AID434970

Test system: intestinal alkaline phosphatase [Mus musculus]
Experiment: mouse intestinal phosphatase enzyme activation – biochemical, luminescence, single concentration, confirmation (AID 434970)
Details: purified mouse IAP, CDP-Star luminescence, 30 min, at 10 µM; stronger effect = lower value
Hit rate of the full screen: of about 11,000 compounds, about 310 (2.8%) were called active. The full list was thinned out, with actives kept by preference.
Below, each entry is listed alongside its reported activity change, negative = activation.
Value expressed in %; do not type the unit.

Illustrative cases are given below, each with its answer.
| compound | experimentalSystem | unitDescriptor | activity change, negative = activation |
| --- | --- | --- | --- |
| Cc1cc(C)c2nc(C(F)(F)F)nc(NCCCN3CCCC3=O)c2c1 | intestinal alkaline phosphatase [Mus musculus] | % | 5.35 |
| Cn1cccc1C(=O)OCC(=O)Nc1ccc2c(c1)CCC2 | intestinal alkaline phosphatase [Mus musculus] | % | -5.05 |
| Cc1cc(NC(=O)C2CCN(S(=O)(=O)c3cnc[nH]3)CC2)ccc1Br | intestinal alkaline phosphatase [Mus musculus] | % | 6.5 |
| C1CN(c2nc3nonc3n3nnnc23)CCO1 | intestinal alkaline phosphatase [Mus musculus] | % | 2.75 |
| CS(=O)(=O)Nc1ccccc1C(=O)c1ccccc1 | intestinal alkaline phosphatase [Mus musculus] | % | -3.7 |

Problem: For intestinal alkaline phosphatase [Mus musculus], give the measured activity change, negative = activation of the entry CSc1ccc(-c2nc(CSCC(=O)NCCCN3CCOCC3)c(C)o2)cc1
Result: 15.3

Problem: // output activity change, negative = activation; input COc1ccc2[nH]c3c(c2c1)CCN1C(=O)C(CC(=O)NC/C=C(\C)CCC=C(C)C)C[C@H](C(=O)N(C(C)C)C(C)C)[C@@]31C (some centres not stated) ; system intestinal alkaline phosphatase [Mus musculus]
Result: -100

Problem: // output activity change, negative = activation; input O=C(Nc1ccccc1)Nc1ccc2c(c1)CCC2 ; system intestinal alkaline phosphatase [Mus musculus]
Result: -94.8

Problem: Supply activity change, negative = activation measured with intestinal alkaline phosphatase [Mus musculus] for CCN([C@H](CO)CC(C)C)S(=O)(=O)c1ccccc1 .
Result: -8.75

Problem: Enter recorded activity change, negative = activation with intestinal alkaline phosphatase [Mus musculus] for CCn1ncc(C2=NOC(C(=O)Nc3ccc(C)cc3)C2)c1C (configuration not stated) here.
Result: -7.35

* * *

Test system: intestinal alkaline phosphatase [Mus musculus]
Experiment: mouse intestinal phosphatase enzyme activation – biochemical, luminescence, single concentration, confirmation (AID 434970)
Conditions: purified mouse IAP, CDP-Star luminescence, 30 min, at 10 µM
About 310 (2.8%) of roughly 11,000 compounds were called active. Cut-off read from the data, not from the text of the source: active = activity change below about -85%; inactive = the rest. This is one part of a sample in which actives are shown more often than they occur.
Just give me one of these, please: active, inactive

Check out these entries, answers already filled in.
| compound | experimentalSystem | category |
| --- | --- | --- |
| O=C(Nc1ccc(Cl)cc1)Nc1ccc(-c2cnco2)cc1 | intestinal alkaline phosphatase [Mus musculus] | inactive |
| C#CCOCCOCCOCCNc1nc(N2CCN(C(=O)CCCCCCCCCCNC(=O)Cn3cc(C[C@@H](C)O)nn3)CC2)nc(N2CCN(C(=O)CCCCCCCCCCNC(=O)[C@@H]([C@H](C)CC)n3cc(CCCCCN)nn3)CC2)n1 | intestinal alkaline phosphatase [Mus musculus] | active |

Note: attention shifts to another entry.
Problem: I would be grateful if you could indicate the recorded call for Cn1c(=O)cc(SCC(=O)Nc2cccnc2)c2ccccc21 .
Result: inactive

* * *

System: intestinal alkaline phosphatase [Mus musculus]
Assay: mouse intestinal phosphatase enzyme activation – biochemical, luminescence, single concentration, confirmation (AID 434970)
Conditions: purified mouse IAP, CDP-Star luminescence, 30 min, at 10 µM; measured here: IAP activation factor, stronger effect = higher value
The whole screen tested about 11,000 compounds, of which about 310 (2.8%) were called active. The entries come from a sample that favours actives as a whole.
Short version: activation factor at least 1 is fulfilled, less is not fulfilled.

| molecule | category |
| --- | --- |
| Cc1ccc2c(c1)c(C)c(C)n2CC(O)CN1CCOCC1 (stereo unspecified) | not fulfilled |
| CCOC(=O)c1cnn(-c2ccc(Cl)cc2)c1C1CCN(C(=O)OC(C)(C)C)CC1 | fulfilled |

Now turn to the next molecule.
Problem: Decide: is the reported value of activation factor for O=C(CN1CCCCCC1)Nc1ccccc1F equal to or greater than 1?
Result: not fulfilled

* * *

Tested on: intestinal alkaline phosphatase [Mus musculus]
Test: mouse intestinal phosphatase enzyme activation – biochemical, luminescence, single concentration, confirmation (AID 434970)
Details: purified mouse IAP, CDP-Star luminescence, 30 min, at 10 µM
About 310 (2.8%) of roughly 11,000 compounds were called active. Cut-off read from the data, not from the text of the source: active = activity change below about -85%; inactive = the rest. Shown is part of a subset that was picked to be rich in actives.
Answer with one of the outcomes active, inactive

| compound | category |
| --- | --- |
| O=C(Nc1ccc(Cl)c(Cl)c1)N1CCSCC1 | inactive |
| Cc1ccc(S(=O)(=O)N(C)C[C@H]2Oc3c(NC(=O)Nc4cccc5ccccc45)cccc3C(=O)N([C@@H](C)CO)C[C@@H]2C)cc1 | active |
| Cn1c(CNC(=O)Nc2cccc(Cl)c2)nnc1SCc1ccccc1 | inactive |
| CCn1nccc1C(=O)Nc1ccc(Cl)c(Cl)c1 | inactive |

Problem: Hi, sorry to bother you, what did the test record for Cc1cc(N2CCN(C)CC2)nc2ccc(NC(=O)c3ccc4c(c3)OCO4)cc12 ?
Result: inactive

Problem: What did the test return for C[C@H]1CN([C@@H](C)CO)C(=O)c2cccc(NC(=O)Nc3ccc(C(F)(F)F)cc3)c2O[C@@H]1CN(C)S(=O)(=O)c1ccc(Cl)cc1 ?
Result: inactive

Problem: For N#Cc1ccc(NC(=O)Nc2ccc(Cl)cc2)cc1 , what call appears in the results of this test?
Result: inactive

Problem: Kindly provide the recorded test outcome for the following compound: FC(F)(F)c1ccc(NC(=S)NCc2ccccc2)cc1
Result: inactive

Problem: Could you kindly confirm the outcome this assay logged for C#CCOCCOCCOCCNc1nc(N2CCN(C(=O)CCCCCCCCCCNC(=O)[C@@H](CCSC)n3cc(CCO)nn3)CC2)nc(N2CCN(C(=O)CCCCCCCCCCNC(=O)[C@H]([C@@H](C)CC)n3cc(CCCCN=C(N)N)nn3)CC2)n1 ?
Result: active

Problem: # fetch the recorded call for COc1ccccc1CNC(=O)CCCOc1cc(=O)n(C)c2ccccc12 here
Result: inactive

Problem: Identify the outcome logged in this assay for the compound shown: Cc1ccc(CNC(=O)c2ccc(NC(=O)CCS(=O)(=O)c3cccs3)cc2)cc1
Result: inactive

Problem: Look up the recorded call for O=C(Nc1ccc(Cl)cc1)Nc1ccc(Cl)c(Cl)c1 in this test.
Result: active

Problem: Query: recorded result category for COc1ccccc1[C@H]1C(c2cccc(Cl)c2)=NN(c2ccccc2)[C@@H]1CO in this test
Result: inactive

Problem: Recorded test call requested for Cc1ccc(S(=O)(=O)N(C)C[C@@H]2Oc3ccc(NC(=O)Nc4cccc5ccccc45)cc3C(=O)N([C@H](C)CO)C[C@H]2C)cc1
Result: active

Problem: For Cc1onc(-c2ccccc2)c1CNC(=O)Nc1ccc(C(F)(F)F)cc1 , which call appears in the assay record?
Result: active

Problem: How did this test come out for O=C(Nc1ccc(Br)cc1)Nc1ccccc1Cl ?
Result: inactive

Problem: // return assay outcome for COc1ccc2[nH]c3c(c2c1)CCN1C(=O)C(CC(=O)NCc2cccc(C(F)(F)F)c2)C[C@H](C(=O)N2CCOCC2)[C@@]31C (stereo partly specified)
Result: inactive

Problem: Give the logged outcome of this assay for the following compound: CC(C)(C)c1ccc(OCC(=O)NCc2ccco2)c(Br)c1
Result: inactive

Problem: GET /call?item= COc1ccccc1[C@H]1C(c2ccccc2)=NN(c2ccccc2)[C@@H]1CO returns the recorded outcome of this test.
Result: active

Problem: Test call, this compound: Cc1ccccc1N(CC(=O)N1CCN(c2ccccc2)CC1)S(C)(=O)=O
Result: inactive

Problem: GET /call?item= COCc1c(C)cc(C)c(/C=N/O)c1C returns the recorded outcome of this test.
Result: inactive

* * *

System: intestinal alkaline phosphatase [Mus musculus]
Experiment: mouse intestinal phosphatase enzyme activation – biochemical, luminescence, single concentration, confirmation (AID 434970)
Settings: purified mouse IAP, CDP-Star luminescence, 30 min, at 10 µM
The whole screen tested about 11,000 compounds, of which about 310 (2.8%) were called active. Cut-off read from the data, not from the text of the source: active = activity change below about -85%; inactive = the rest. This excerpt belongs to a sample that is enriched for actives.
Valid outcomes are listed here; reply with one: y = active, n = inactive

# example entries with known answers
| compound | experimentalSystem | category |
| --- | --- | --- |
| COc1ccc2[nH]c3c(N4CC(C)OC(C)C4)ncnc3c2c1 (stereo unspecified) | intestinal alkaline phosphatase [Mus musculus] | n |
| O=C(Cn1cnc2c(NCc3ccccc3)ncnc21)NCc1ccccc1 | intestinal alkaline phosphatase [Mus musculus] | n |
| COc1ccc(CNc2ncnc3c2[nH]c2ccccc23)cc1 | intestinal alkaline phosphatase [Mus musculus] | y |
| Fc1ccc2[nH]c3c(NCc4ccccc4)ncnc3c2c1 | intestinal alkaline phosphatase [Mus musculus] | y |
| COc1cc(CNc2ncnc3c2[nH]c2ccc(C)cc23)cc(OC)c1 | intestinal alkaline phosphatase [Mus musculus] | y |

Query compound follows.
Problem: Could you check what this test reported for N#Cc1c2c(c(NCCCN3CCOCC3)n3c1nc1ccccc13)CCC2 ?
Result: n
